Biological target: dP75 IBD-containing C-terminus region (residues 209–445) (Drosophila melanogaster)
Test: ITC

| BINDER | Kd |
| --- | --- |
| KREENFYGFSK [Jil-1 peptide at the distal site (…; residues 1102–1112)] | 120 µM |
